tested on: Staphylococcus aureus; experiment: Antibacterial activity against Staphylococcus aureus ATCC 29213 after 20 to 22 hrs by CLSI broth macro-dilution method; format: functional
Measured parameter: MIC99

The cases that follow already have their MIC99 on record.
Structure smiles string	Recorded measurement
COc1c(OCCCCN2CCCC2)cc2oc3cc(OCCCCN4CCCC4)c(CC=C(C)C)c(O)c3c(=O)c2c1CC=C(C)C	1.56 µg/mL
COc1c(OCCCCn2cccn2)cc2oc3cc(OCCCCn4cccn4)c(CC=C(C)C)c(O)c3c(=O)c2c1CC=C(C)C	> 200 µg/mL

Query molecule follows.
Which value of MIC99 has been reported for `COc1c(OCCCCn2cncn2)cc2oc3cc(OCCCCn4cncn4)c(CC=C(C)C)c(O)c3c(=O)c2c1CC=C(C)C` in the records?
> 200 µg/mL

----------
assay: Dissociation constant, pKa of the compound; format: physicochemical
Binary classification by pKa, with 10 as an inclusive lower bound for y; all other cases are n.

Take a look at these entries with their results.
Structure smiles string	Assigned class
COc1c(OCCCCN2CCCC2)cc2oc3cc(OCCCCN4CCCC4)c(CC=C(C)C)c(O)c3c(=O)c2c1CC=C(C)C	y
CCN(CC)CCCOc1cc2oc3cc(OCCCN(CC)CC)c(OC)c(CC=C(C)C)c3c(=O)c2c(O)c1CC=C(C)C	y
CCN(CC)CCCCOc1cc2oc3cc(OCCCCN(CC)CC)c(OC)c(CC=C(C)C)c3c(=O)c2c(O)c1CC=C(C)C	y

Would you say `COc1c(OCCCCN2CCOCC2)cc2oc3cc(OCCCCN4CCOCC4)c(CC=C(C)C)c(O)c3c(=O)c2c1CC=C(C)C` shows pKa at minimum 10?
n

Record `CCN(CC)CCCCCCOc1cc2oc3cc(OCCCCCCN(CC)CC)c(OC)c(CC=C(C)C)c3c(=O)c2c(O)c1CC=C(C)C` ; criterion: pKa no lower than 10. Met?
y

Exam item: decide whether the reported pKa for `COc1c(OCCCCn2cccn2)cc2oc3cc(OCCCCn4cccn4)c(CC=C(C)C)c(O)c3c(=O)c2c1CC=C(C)C` is at least 10.
n

----------
Could you please report measured MIC99 for the items listed next?
tested on: Staphylococcus aureus; assay: Antibacterial activity against Staphylococcus aureus ATCC 29213 after 20 to 22 hrs by CLSI broth macro-dilution method; assay type: functional
One number for each entry, in µg/mL.

Here is how some compounds turned out for MIC99.
Structure smiles string	MIC99 / µg/mL
CCN(CC)CCCCCOc1cc2oc3cc(OCCCCCN(CC)CC)c(OC)c(CC=C(C)C)c3c(=O)c2c(O)c1CC=C(C)C	1.56
CCN(CC)CCCOc1cc2oc3cc(OCCCN(CC)CC)c(OC)c(CC=C(C)C)c3c(=O)c2c(O)c1CC=C(C)C	0.78

Here are 4 compounds. What values of MIC99 were reported for them?
1. CCN(CC)CCCCOc1cc2oc3cc(OCCCCN(CC)CC)c(OC)c(CC=C(C)C)c3c(=O)c2c(O)c1CC=C(C)C
2. COc1c(OCCCCN2CCCCC2)cc2oc3cc(OCCCCN4CCCCC4)c(CC=C(C)C)c(O)c3c(=O)c2c1CC=C(C)C
3. CCN(CC)CCCCCCOc1cc2oc3cc(OCCCCCCN(CC)CC)c(OC)c(CC=C(C)C)c3c(=O)c2c(O)c1CC=C(C)C
4. COc1c(O)cc2oc3cc(O)c(CC=C(C)C)c(O)c3c(=O)c2c1CC=C(C)C

1: 0.39; 2: 0.78; 3: 1.56; 4: 1.56
